# ASSAY_EXPLANATION: oral bioavailability of encapsulated microparticulate (100 mg) enteric coated formulation (Example 3)
# Parameters: species or system cynomolgus monkeys
# MEASUREMENT_PARAMETERS: cynomolgus monkey, in vivo; fasted male cynomolgus monkeys, single oral dose 100 mg encapsulated microparticulate capsule, 1 hr, individual animals; read-out: Plasma Concentrations
RECORDED_METRIC: concentration at 1 hr (ng/mL)
Answers are plain numbers, in ng/mL.

For `CN(C)c1cc(NC(=O)CNC(C)(C)C)c(O)c2c1C[C@H]1C[C@H]3[C@H](N(C)C)C(O)=C(C(N)=O)C(=O)[C@@]3(O)C(O)=C1C2=O` the compound record lists concentration at 1 hr as 113

====

# ASSAY_EXPLANATION: pharmacokinetics after single oral (gavage) and intravenous dose in 0.9% saline (Example 2)
# Set-up: species or system cynomolgus monkeys
# MEASUREMENT_PARAMETERS: male, cynomolgus monkey, in vivo, iv, 5 mg/kg, Plasma Concentrations
RECORDED_METRIC: concentration at 0.5 hr
I'd appreciate it if you wrote the number followed by its unit.

concentration at 0.5 hr reading for `CN(C)c1cc(NC(=O)CNC(C)(C)C)c(O)c2c1C[C@H]1C[C@H]3[C@H](N(C)C)C(O)=C(C(N)=O)C(=O)[C@@]3(O)C(O)=C1C2=O` : 3340 ng/mL

====

# ASSAY_EXPLANATION: pharmacokinetics after single oral (gavage) and intravenous dose in 0.9% saline (Example 2)
# Design: species or system cynomolgus monkeys
# MEASUREMENT_PARAMETERS: male, cynomolgus, cynomolgus monkey, in vivo, po, 15 mg/kg, Cmax, Mean
RECORDED_METRIC: Cmax (ng/mL)
Answers are plain numbers, in ng/mL.

The reported Cmax of the compound CN(C)c1cc(NC(=O)CNC(C)(C)C)c(O)c2c1C[C@H]1C[C@H]3[C@H](N(C)C)C(O)=C(C(N)=O)C(=O)[C@@]3(O)C(O)=C1C2=O [Tigecycline] was 163

====

# ASSAY_EXPLANATION: pharmacokinetics after single oral (gavage) and intravenous dose in 0.9% saline (Example 2)
# Design: species or system cynomolgus monkeys
# MEASUREMENT_PARAMETERS: male, cynomolgus, cynomolgus monkey, in vivo, iv, 5 mg/kg, Plasma Concentrations, Mean
RECORDED_METRIC: concentration at 32 hr (µg/mL)
One number for each entry, in µg/mL.

concentration at 32 hr reported for this compound CN(C)c1cc(NC(=O)CNC(C)(C)C)c(O)c2c1C[C@H]1C[C@H]3[C@H](N(C)C)C(O)=C(C(N)=O)C(=O)[C@@]3(O)C(O)=C1C2=O [Tigecycline] : 0.0318

====

# ASSAY_EXPLANATION: pharmacokinetics after single oral (gavage) and intravenous dose in 0.9% saline (Example 2)
# Set-up: species or system cynomolgus monkeys
# MEASUREMENT_PARAMETERS: male, cynomolgus, cynomolgus monkey, in vivo, iv, 5 mg/kg, Plasma Concentrations, Mean
RECORDED_METRIC: concentration at 24 hr (ng/mL)
Give bare numbers, in ng/mL.

The compound listed as `CN(C)c1cc(NC(=O)CNC(C)(C)C)c(O)c2c1C[C@H]1C[C@H]3[C@H](N(C)C)C(O)=C(C(N)=O)C(=O)[C@@]3(O)C(O)=C1C2=O` shows concentration at 24 hr equal to 162
